- Protocol Text: Rat serum stability studies (remaining active peptide by DiscoveRx cAMP on CHO-VPAC2 cells)
- Assay type: in vitro ADME
Where no end group is shown, it is not given here. [ ]: non-standard residue; d: D form. The star is where a group is joined. Hexanoyl = CCCCCC(=O)*; Aib = CC(C)(N)C(=O)O
With a cut-off of 1%, any Rat Serum Stability (estimated purity in % after 18 hours) strictly below it is called TRUE; any Rat Serum Stability (estimated purity in % after 18 hours) meeting it or above is called FALSE.

Substance: Hexanoyl-HSDAVFTDNYTRLR[Aib]QLAA[Aib]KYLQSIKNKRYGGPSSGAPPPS [Agonist P291]
Assigned Label: FALSE
//
Substance: Hexanoyl-HSDAVFTDNYTRL[Aib]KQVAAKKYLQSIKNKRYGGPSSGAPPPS [Agonist P167]
Assigned Label: FALSE

I'd appreciate it if you could check whether Hexanoyl-HSDAVFTDNYTRLRKQVAAKAYLQSIKNKRYGGPSSGAPPPS [Agonist P184] has Rat Serum Stability (estimated purity in % after 18 hours) smaller than 1%.
TRUE
